# Tested on: APEC O2 in HD-11 cells
# assay-protocol: Intracellular survival assay (AI-2 inhibitors)
# condition-parameters: O2, HD-11, 100 µM, 6 h, vs DMSO
Please provide measured reduction of intracellular survival for the entries that follow.
Respond numerically; units are logs and should not be typed.

reduction of intracellular survival lookup needed for "Cc1ccc(CN2CCN(CCCc3ccccc3)CC2)cc1" , thanks. 3.3

reduction of intracellular survival lookup needed for "O=[N+]([O-])c1cccc(S(=O)(=O)Nc2ccc(Br)cc2)c1" , thanks. 3.3

reduction of intracellular survival lookup needed for "Fc1ccc(CN2CCCN(Cc3nc(-c4ccc(C(F)(F)F)cc4)no3)CC2)cc1" , thanks. 3.3

reduction of intracellular survival lookup needed for OCCC1CN(C2CCN(c3ccccc3)CC2)CCN1CCCc1ccccc1 (stereo not shown) , thanks. 3.3

* * *

# Tested on: intracellular APEC O78 in HD11 cells
# assay-protocol: Intracellular survival assay (cidal SMs)
# condition-parameters: O78, HD11, 6 h treatment; superscript = multiple of MIC
Marks after values point to notes of the source that are not given here.
measurement-type: SMs intracellular APEC clearance concentration

SMs intracellular APEC clearance concentration lookup needed for "CCN1C(=Cc2ccc3ccccc3[n+]2CC)C=Cc2ccccc21.[Cl-]" , thanks. 100^c µM

SMs intracellular APEC clearance concentration lookup needed for CC1CCC(C(C)C)C(OC(=O)Cn2c[n+](CC(=O)OC3CC(C)CCC3C(C)C)c3ccccc32)C1.[Cl-] (centres unmarked) , thanks. 50^b µM

SMs intracellular APEC clearance concentration lookup needed for COc1cc(CNCCc2ccc3ccccc3c2)ccc1OCC(O)CN1CCCC1 (centres unmarked) , thanks. 100^a µM

SMs intracellular APEC clearance concentration lookup needed for "CCCCCCCCCCCCCCCC[n+]1ccn(CC#N)c1" , thanks. 50^c µM

SMs intracellular APEC clearance concentration lookup needed for CC(=O)OC(C(Br)C(=O)c1ccc([N+](=O)[O-])cc1)C(Cl)(Cl)Cl (centres unmarked) , thanks. 50^b µM

* * *

# Tested on: Rif^r APEC O78
# assay-protocol: In vivo efficacy of growth inhibitors in APEC infected broiler chickens
# condition-parameters: untreated control = 100%
Please provide measured reduction of APEC lesions severity (%), Heart (pericarditis) for the entries that follow.
Hi, when you answer, please include the unit after the number. Thanks!

reduction of APEC lesions severity (%), Heart (pericarditis) lookup needed for COc1ccc(CNCc2cccc(C(F)(F)F)c2)cc1OCC(O)CN1CCCC1 (stereo not drawn) , thanks. 60%

reduction of APEC lesions severity (%), Heart (pericarditis) lookup needed for CC(=O)OC(C(Br)C(=O)c1ccc([N+](=O)[O-])cc1)C(Cl)(Cl)Cl (stereo not drawn) , thanks. -28%

reduction of APEC lesions severity (%), Heart (pericarditis) lookup needed for CC1CCCN(CCC(=O)c2ccc(Br)cc2)C1.Cl (stereo not drawn) , thanks. 33.3%

reduction of APEC lesions severity (%), Heart (pericarditis) lookup needed for "CCN1C(=Cc2ccc3ccccc3[n+]2CC)C=Cc2ccccc21.[Cl-]" , thanks. -60%

reduction of APEC lesions severity (%), Heart (pericarditis) lookup needed for "CCCCCCCCCCCCCCCC[n+]1ccn(CC#N)c1" , thanks. 20%

reduction of APEC lesions severity (%), Heart (pericarditis) lookup needed for COc1cc(CNCCc2ccc(C)cc2)ccc1OCC(O)CN1CCCC1 (stereo not drawn) , thanks. 4%

From: patent US20230355597A1
